Tested on: NOMO1
assay.explanation: cell viability relative to DMSO control; higher = less cytotoxic
test.settings: RPMI 5 mM glucose + 10% dialyzed FBS; 48 h; 46.1 µM
# cell viability per entry
Respond numerically; units are % and should not be typed.

Past entries and their recorded results:
INSERT INTO assay_data (compound, measurement_type, value_observed) VALUES
  ('CCCCCCCCc1ccc(CCC(N)(CO)CO)cc1', 'cell viability', 2.38),
  ('COC1=CC=C(C=C1)C2CC(=N/N2C3=CC=C(C=C3)[S+](N)([O-])=O)\C4=CC=CC=C4 (stereo not given)', 'cell viability', 1.96),
  ('COc1cc([C@@H]2c3cc4c(cc3[C@@H](O[C@@H]3O[C@@H]5CO[C@@H](c6cccs6)O[C@H]5[C@H](O)[C@H]3O)[C@H]3COC(=O)[C@H]23)OCO4)cc(OC)c1O', 'cell viability', 16.7),
  ('C#C[C@]1(O)CC[C@H]2[C@@H]3CCc4cc(OC)ccc4[C@H]3CC[C@@]21C', 'cell viability', 107),
  ('CC(C)NCC(O)COc1ccc(CCOCC2CC2)cc1 (stereo not given)', 'cell viability', 20.9),
  ('CC(C)(C)NC(=O)[C@H]1CC[C@H]2[C@@H]3CC[C@H]4NC(=O)\C=C/[C@]4(C)[C@H]3CC[C@]12C', 'cell viability', 18.8);

# compound `CN[C@@H]1C[C@H]2O[C@@](C)([C@@H]1OC)n1c3ccccc3c3c4c(c5c6ccccc6n2c5c31)C(=O)N[C@H]4O` ; its cell viability = 3.79

Looking up `OC1=CC=C(C=C1)\C2=C\C(=O)C3=C(O2)C=C(O)C=C3O` , I see its cell viability listed as 54.6

====

System: P12-Ichikawa
assay.explanation: cell viability relative to DMSO control; higher = less cytotoxic
test.settings: RPMI 5 mM glucose + 10% dialyzed FBS; 48 h; 0.0632 µM
measurement.type: cell viability (%)
Provide the reading as a plain figure in %.

Field: example entries. Status: answers known.
INSERT INTO assay_data (record_smiles, measurement_type, value_observed) VALUES
  ('CCN(CC)CCN1C(=O)\C(=N/C2=CC=CC=C12)CC3=CC=C(OC)C=C3', 'cell viability', 112),
  ('Cc1cn(CCN2CCN(c3ccccc3-c3cc(C#N)cc(C(=O)NCCCN4CCCC4)c3)CC2)c2ccccc12', 'cell viability', 124),
  ('NC(=O)c1cccc(N)c1', 'cell viability', 115);

Reported cell viability ( `OC1=CC=C(C=C1)\C2=C\C(=O)C3=C(O2)C=C(O)C=C3O` ) = 118

====

Test system: P12-Ichikawa
assay.explanation: cell viability relative to DMSO control; higher = less cytotoxic
test.settings: RPMI 5 mM glucose + 10% FBS; 48 h; 46.1 µM
measurement.type: cell viability (%)
Give a bare numeral; the unit % is implied.

Known cell viability results, listed for orientation:
INSERT INTO measurements (compound, measure_unit, value_observed) VALUES
  ('CO[C@@H]1C(N(C)C(=O)c2ccccc2)C[C@H]2O[C@]1(C)n1c3ccccc3c3c4c(c5c6ccccc6n2c5c31)C(=O)NC4=O (stereo partly drawn)', '%', 32.5),
  ('NC(=O)Nc1cc(-c2ccc(CN3CCOCC3)cc2)sc1C(N)=O', '%', 18.6);

Noted for `NCC(=O)Nc1ccc(-n2nc(C(F)(F)F)cc2-c2ccc3c(ccc4ccccc43)c2)cc1` : its cell viability reads 79

====

Tested on: NOMO1
assay.explanation: AUC of viability dose-response curve (% viability x log10 dose units); higher = less sensitive
test.settings: RPMI 5 mM glucose + 10% FBS; 48 h
measurement.type: AUC of viability dose-response curve
Answer with a number only.

With NOMO1 as the test system, `CC(=O)[C@H]1CC[C@H]2[C@@H]3CCC4=CC(=O)CC[C@]4(C)[C@H]3CC[C@]12C` showed AUC of viability dose-response curve of 447

====

Each entry below lists one item and its recorded cell viability value.
Test system: SEM cells
assay.explanation: cell viability relative to DMSO control; higher = less cytotoxic
test.settings: HPLM + 10% dialyzed FBS; 48 h; 0.19 µM
Give the figure together with its unit, number first.

Record excerpt, results attached:
INSERT INTO assay_data (record_smiles, value_observed) VALUES
  ('NCC(=O)Nc1ccc(-n2nc(C(F)(F)F)cc2-c2ccc3c(ccc4ccccc43)c2)cc1', '112%'),
  ('Cc1c(C(=O)Nc2cccc(C(F)(F)F)c2)cc(-c2ccccc2)n1CCCN1CCOCC1', '96.3%'),
  ('COC(=O)[C@@H](N)CCCNC(=N)N[N+](=O)[O-]', '95.1%');

// next item, cell viability requested
Entry `O=C1N\2CCC3=C([NH]C4=C3C=CC=C4)C2=N/C5=CC=CC=C15` ; cell viability = 123%

====

Test system: P12-Ichikawa
assay.explanation: cell viability relative to DMSO control; higher = less cytotoxic
test.settings: RPMI 5 mM glucose + 10% FBS; 48 h; 0.19 µM
measurement.type: cell viability (%)
Numeric only. Scale: %

So, `O=C1CCc2ccc(OCCCCN3CCN(c4cccc(Cl)c4Cl)CC3)cc2N1` ? Its cell viability was 101

====

The reader will find reported cell viability values listed item by item below.
Test system: SEM cells
assay.explanation: cell viability relative to DMSO control; higher = less cytotoxic
test.settings: RPMI 5 mM glucose + 10% FBS; 48 h; 0.00234 µM
I only need the number, in %, no unit after it.

INSERT INTO measurements (molecule, value_observed) VALUES
  ('CN(C)CCCNC(=O)c1ccc(-c2cc(O)c3ncccc3c2)cc1', 107);

Now for another entry.
cell viability reported for this molecule `Cc1[nH]c(/C=C2\C(=O)Nc3ccc([S+](=O)([O-])Cc4c(Cl)cccc4Cl)cc32)c(C)c1C(=O)N1CCC[C@@H]1CN1CCCC1` : 114

====

Listed compounds paired with reported AUC of viability dose-response curve
Test system: NOMO1
assay.explanation: AUC of viability dose-response curve (% viability x log10 dose units); higher = less sensitive
test.settings: HPLM + 10% dialyzed FBS; 48 h
Give the figure by itself; no unit, no explanation.

Sample records with AUC of viability dose-response curve:
INSERT INTO measurements (compound, value_observed) VALUES
  ('COC1(C[S+]([O-])c2ccccc2)CCN(CCc2c[nH]c3ccc(F)cc23)CC1 (stereo not given)', 418),
  ('CC(=O)Nc1sc2c(c1-c1nc3ccccc3s1)CNC2', 386),
  ('CC(=O)NC[C@H]1CN(c2ccc(N3CCOCC3)c(F)c2)C(=O)O1', 415),
  ('CN(C)CCCNC(=O)c1ccc(-c2cc(O)c3ncccc3c2)cc1', 458),
  ('Clc1ccccc1CN1CCc2sccc2C1', 323);

The reported AUC of viability dose-response curve of the compound `CN(C)c1ccc2cc(C(=O)N[C@@H](CCCNC(=N)CCl)C(=O)NCc3ccccc3)ccc2c1` was 443

Entry `NC(=O)Nc1cc(-c2ccc(CN3CCOCC3)cc2)sc1C(N)=O` ; AUC of viability dose-response curve = 369

====

This section presents compounds with their documented cell viability values.
Test system: NOMO1
assay.explanation: cell viability relative to DMSO control; higher = less cytotoxic
test.settings: RPMI 5 mM glucose + 10% FBS; 48 h; 0.0632 µM
Answer with the value and then the unit.

Before answering, review these 2 worked examples.
INSERT INTO measurements (record_smiles, measurement_type, value_observed) VALUES
  ('O=C(NNC(=O)c1ccc(CN[S+](=O)([O-])c2ccc(F)c(Cl)c2)cc1)c1ccccc1', 'cell viability', '92.9%'),
  ('OC1=CC=C(C=C1)\C2=C\C(=O)C3=C(O2)C=C(O)C=C3O', 'cell viability', '105%');

Let us examine a further case.
// field: cell viability; key: `CC(C)(C)NC(=O)[C@H]1CC[C@H]2[C@@H]3CC[C@H]4NC(=O)\C=C/[C@]4(C)[C@H]3CC[C@]12C` ; value = 96.6%

====

Overview of reported cell viability across a group of compounds:
System: NOMO1
assay.explanation: cell viability relative to DMSO control; higher = less cytotoxic
test.settings: RPMI 5 mM glucose + 10% dialyzed FBS; 48 h; 0.000781 µM
Give the number; % is assumed, so skip it.

Here's what some known entries look like.
INSERT INTO assay_data (record_smiles, measure_unit, value_observed) VALUES
  ('COc1cc([C@@H]2c3cc4c(cc3[C@@H](O[C@@H]3O[C@@H]5CO[C@@H](c6cccs6)O[C@H]5[C@H](O)[C@H]3O)[C@H]3COC(=O)[C@H]23)OCO4)cc(OC)c1O', '%', 89.5),
  ('CN(C)C[C@@H]1CC[N]2C=C(C3=C2C=CC=C3)C/4=C(/C(=O)NC4=O)C5=C[N](CCO1)C6=C5C=CC=C6', '%', 90.6);

The reported NOMO1 cell viability of `CN[S+](=O)([O-])CCc1ccc2[nH]cc(C3CCN(C)CC3)c2c1` is 91.5

Numbers sourced from the supplement of paper PMC11451515.
